EXPERIMENTAL_TARGET: secreted gp63 (Leishmania amazonensis, UniProt Q27673)
Sequence (Q27673 100-597): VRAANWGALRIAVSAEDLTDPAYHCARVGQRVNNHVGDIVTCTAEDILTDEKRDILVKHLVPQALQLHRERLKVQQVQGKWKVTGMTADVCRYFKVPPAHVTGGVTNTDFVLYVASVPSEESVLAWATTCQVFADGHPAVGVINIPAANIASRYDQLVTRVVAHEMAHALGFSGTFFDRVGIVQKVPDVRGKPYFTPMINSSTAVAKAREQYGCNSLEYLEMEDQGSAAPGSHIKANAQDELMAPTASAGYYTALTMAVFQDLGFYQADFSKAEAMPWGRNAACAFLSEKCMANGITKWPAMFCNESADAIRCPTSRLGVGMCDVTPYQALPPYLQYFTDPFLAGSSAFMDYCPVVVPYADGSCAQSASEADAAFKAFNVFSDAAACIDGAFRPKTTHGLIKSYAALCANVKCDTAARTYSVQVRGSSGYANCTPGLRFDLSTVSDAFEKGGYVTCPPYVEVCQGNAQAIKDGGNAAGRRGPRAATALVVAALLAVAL
EXPERIMENT: biochemical
READOUT_NAME: IC50 (mM)
Reply numerically in mM, unit not repeated.

Form: compound = O=C1C(=O)c2cccnc2-c2ncccc21 [Phendione, 1,10-Phenanthroline-5,6-dione] ; IC50 = 1.49

* * *

EXPERIMENTAL_TARGET: secreted gp63 (Leishmania amazonensis)
EXPERIMENT: biochemical
READOUT_NAME: pKi
Worth noting: pKi values are minus log10 of concentrations stated in mol/L.

Form: compound = O=C1C(=O)c2cccnc2-c2ncccc21 [Phendione, 1,10-Phenanthroline-5,6-dione] ; pKi = 3.13

These measurements were taken from paper PMC10384183.
